test: Cytotoxicity against mouse BMMC assessed as reduction in cell viability measured after 48 hrs by MTT assay; assay type: cell-based; settings: mouse BMMC (bone marrow cells), read-out: LC50
reported.property: CC50 at 48 h

Reference set, count: 2
• CN(CCN(C)C(=O)c1cn(S(=O)(=O)c2ccccc2)c2ccccc12)C(=O)c1ccccc1F = > 20 µM
• O=C(c1ccccc1)N1CCN(Cc2cn(-c3cccc(C(F)(F)F)c3)c3ccccc23)CC1 = > 20 µM

## Input Entry "CN(CCN(C)C(=O)c1cn(-c2cccc([N+](=O)[O-])c2)c2ccccc12)C(=O)c1coc2ccccc2c1=O" : reported CC50 at 48 h = ?
## Output 44.2 µM

## Input Entry "O=C(c1coc2ccccc2c1=O)N1CCN(C(=O)c2cn(S(=O)(=O)c3cccc([N+](=O)[O-])c3)c3ccccc23)CC1" : reported CC50 at 48 h = ?
## Output < 20 µM

----------
Some molecules, each annotated with its measured CC50 at 48 h.
assay: Cytotoxicity against mouse BMMC assessed as reduction in cell viability measured after 48 hrs by MTT assay; format: cell-based; conditions: mouse BMMC (bone marrow cells), read-out: LC50
Please respond with the number in µM and leave the unit unwritten.

Reference set, count: 2
- CN(CCN(C)C(=O)c1cn(S(=O)(=O)c2ccccc2)c2ccccc12)C(=O)c1coc2ccccc2c1=O: 62.3
- O=C(c1cn(S(=O)(=O)c2cccc([N+](=O)[O-])c2)c2ccccc12)N1CCN(S(=O)(=O)c2ccccc2)CC1: 123

## Input Entry "CN(CCN(C)Cc1cn(S(=O)(=O)c2ccccc2)c2ccccc12)Cc1coc2ccccc2c1=O" : reported CC50 at 48 h = ?
## Output 58.5

## Input Entry "CN(CCN(C)S(=O)(=O)c1cccc([N+](=O)[O-])c1)C(=O)c1cn(S(=O)(=O)c2cccc([N+](=O)[O-])c2)c2ccccc12" : reported CC50 at 48 h = ?
## Output 18.3

----------
target: Tumor necrosis factor ligand superfamily member 11 (Homo sapiens) (UniProt O14788); assay: Inhibition of human RANKL-induced osteoclastogenesis in RANKL cultured mouse bone marrow cells assessed as reduction in RANKL/M-CSF-induced TRAP activity at 5 uM preincubated with RANKL for 1 hr followed by cell addition and subsequent media replenishment every 48 hrs for 4 days; format: cell-based; conditions: time 4.0 day
Sequence (O14788 140-317 limits assumed): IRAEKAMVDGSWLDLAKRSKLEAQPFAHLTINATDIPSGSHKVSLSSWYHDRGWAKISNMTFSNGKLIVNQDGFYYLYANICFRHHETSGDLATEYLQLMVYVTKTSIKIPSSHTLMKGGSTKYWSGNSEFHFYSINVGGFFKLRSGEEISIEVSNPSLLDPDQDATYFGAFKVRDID
Activity calls are given as the source filed them. The calls are words filed in the database; no cut-off is given here.
Outcome field: choose from active, inactive

## Input GET /call?item= "CN(CCN(C)C(=O)c1cn(S(=O)(=O)c2ccccc2)c2ccccc12)C(=O)c1ccccc1F" returns the recorded outcome of this test.
## Output active

## Input GET /call?item= "O=C(NCCCCNC(=O)c1cn(S(=O)(=O)c2ccccc2)c2ccccc12)c1ccc2ccccc2c1" returns the recorded outcome of this test.
## Output inactive

----------
target: Tumor necrosis factor ligand superfamily member 11 (Homo sapiens, UniProt O14788); test: Binding affinity to GST-fused human RANKL extracellular domain (Lys159 to Asp317 residues) expressed in Escherichia coli BL21(DE3) pLysS by fluorescence spectrophotometric assay; conditions: read-out: Kd
Sequence (O14788 140-317 limits assumed): as above
Some compounds, each annotated with its measured pKd.
In textbook form, pKd equals minus log to base ten of the concentration in mol/L.

Reference set, count: 3
- CN(CCN(C)C(=O)c1cn(S(=O)(=O)c2ccccc2)c2ccccc12)C(=O)c1ccccc1F: 4.90
- Cc1cc2occ(C(=O)N3CCN(C(=O)c4cn(-c5cccc(C(F)(F)F)c5)c5ccccc45)CC3)c(=O)c2cc1C: 5.34
- O=C(NCCNC(=O)c1cn(S(=O)(=O)c2ccccc2)c2ccccc12)c1ccc2ccccc2c1: 5.45

## Input Give recorded pKd with Tumor necrosis factor ligand superfamily member 11 (Homo sapiens, UniProt O14788) for the following compound: "O=C(c1cn(-c2cccc(C(F)(F)F)c2)c2ccccc12)N1CCN(C(=O)n2ccnc2)CC1"
## Output 5.27

## Input Give recorded pKd with Tumor necrosis factor ligand superfamily member 11 (Homo sapiens, UniProt O14788) for the following compound: "O=C(c1ccccc1F)N1CCN(C(=O)c2c[nH]c3ccc([N+](=O)[O-])cc23)CC1"
## Output 4.89

## Input Give recorded pKd with Tumor necrosis factor ligand superfamily member 11 (Homo sapiens, UniProt O14788) for the following compound: "CN(CCN(C)C(=O)c1cn(-c2cccc(C(F)(F)F)c2)c2ccc([N+](=O)[O-])cc12)C(=O)c1coc2ccccc2c1=O"
## Output 5.55

## Input Give recorded pKd with Tumor necrosis factor ligand superfamily member 11 (Homo sapiens, UniProt O14788) for the following compound: "O=C(c1coc2ccccc2c1=O)N1CCN(C(=O)c2cn(S(=O)(=O)c3ccccc3)c3ccccc23)CC1"
## Output 4.96

----------
biological target: Tumor necrosis factor ligand superfamily member 11 (Homo sapiens); experiment: Inhibition of human RANKL-induced osteoclastogenesis in RANKL cultured mouse bone marrow cells assessed as reduction in RANKL/M-CSF-induced TRAP activity at 5 uM preincubated with RANKL for 1 hr followed by cell addition and subsequent media replenishment every 48 hrs for 4 days; type: cell-based; settings: time 4.0 day
Calls of active or inactive are those of the source. The calls are words filed in the database; no cut-off is given here.
reported.property: inhibition

* Cc1ccc2occ(CN3CCN(Cc4cn(-c5cccc(C(F)(F)F)c5)c5ccccc45)CC3)c(=O)c2c1 | inactive
* CN(CCN(C)C(=O)c1cn(S(=O)(=O)c2cccc([N+](=O)[O-])c2)c2ccccc12)C(=O)c1coc2ccccc2c1=O | 100%
* CN(CCN(C)C(=O)c1cn(S(=O)(=O)c2cccc(N)c2)c2ccccc12)C(=O)c1coc2ccccc2c1=O | inactive
* CN(CCN(C)C(=O)n1ccnc1)C(=O)c1cn(S(=O)(=O)c2ccccc2)c2ccccc12 | inactive

----------
Some compounds, each annotated with its measured CC50 at 48 h.
assay: Cytotoxicity against mouse BMMC assessed as reduction in cell viability measured after 48 hrs by MTT assay; type: cell-based; settings: mouse BMMC (bone marrow cells), read-out: LC50

• Cc1cc2occ(CN(C)CCN(C)Cc3cn(-c4cccc(C(F)(F)F)c4)c4ccccc34)c(=O)c2cc1C = 3.2 µM
• O=C(c1ccccc1F)N1CCN(C(=O)c2c[nH]c3ccc([N+](=O)[O-])cc23)CC1 = > 20 µM
• O=C(c1cn(S(=O)(=O)c2cccc([N+](=O)[O-])c2)c2ccccc12)N1CCN(S(=O)(=O)c2cccc([N+](=O)[O-])c2)CC1 = 118 µM
• O=C(c1coc2ccccc2c1=O)N1CCN(Cc2cn(-c3cccc(C(F)(F)F)c3)c3ccccc23)CC1 = > 20 µM
• Cc1cc2occ(C(=O)N3CCN(C(=O)c4cn(-c5cccc(C(F)(F)F)c5)c5ccccc45)CC3)c(=O)c2cc1C = < 20 µM
• O=C(c1coc2ccccc2c1=O)N1CCN(Cc2cn(-c3cccc(C(F)(F)F)c3)c3ccc([N+](=O)[O-])cc23)CC1 = < 20 µM
• Nc1cccc(-n2cc(C(=O)N3CCN(C(=O)c4coc5ccccc5c4=O)CC3)c3cc(N)ccc32)c1 = > 20 µM

Please look at the following compound next.
## Input Entry "CN(CCN(C)C(=O)c1cn(S(=O)(=O)c2cccc([N+](=O)[O-])c2)c2ccccc12)C(=O)c1coc2ccccc2c1=O" : reported CC50 at 48 h = ?
## Output 32.2 µM

----------
assay: Cytotoxicity against mouse BMMC assessed as reduction in cell viability measured after 48 hrs by MTT assay; type: cell-based; settings: mouse BMMC (bone marrow cells), read-out: LC50
reported.property: CC50 at 48 h

Reference set, count: 3
- O=C(c1coc2ccccc2c1=O)N1CCN(C(=O)c2cn(S(=O)(=O)c3ccccc3)c3ccccc23)CC1: > 20 µM
- N#Cc1ccc(S(=O)(=O)N2CCN(C(=O)c3cn(S(=O)(=O)c4cccc([N+](=O)[O-])c4)c4ccccc34)CC2)cc1: 52.6 µM
- Cc1cc2occ(CN3CCN(Cc4cn(-c5cccc(C(F)(F)F)c5)c5ccccc45)CC3)c(=O)c2cc1C: < 20 µM

Please look at the following molecule next.
## Input Entry "CN(CCN(C)S(=O)(=O)c1ccc(C#N)cc1)C(=O)c1cn(S(=O)(=O)c2cccc([N+](=O)[O-])c2)c2ccccc12" : reported CC50 at 48 h = ?
## Output > 500 µM

----------
molecular target: Tumor necrosis factor ligand superfamily member 11 (Homo sapiens) (UniProt O14788); assay: Inhibition of human RANKL-induced osteoclastogenesis in RANKL cultured mouse bone marrow cells assessed as reduction in RANKL/M-CSF-induced TRAP activity at 5 uM preincubated with RANKL for 1 hr followed by cell addition and subsequent media replenishment every 48 hrs for 4 days; format: cell-based; details: time 4.0 day
The source made the active and inactive calls. The rule behind the calls is not given here.
reported.property: inhibition

Reference set, count: 5
* O=C(c1ccccc1)N1CCN(C(=O)c2cn(-c3cccc(C(F)(F)F)c3)c3ccccc23)CC1 | inactive
* Cc1ccc2c(=O)c(CN(C)CCN(C)Cc3cn(S(=O)(=O)c4ccccc4)c4ccccc34)coc2c1 | 100%
* O=C(c1ccccc1)N1CCN(Cc2cn(-c3cccc(C(F)(F)F)c3)c3ccccc23)CC1 | Active
* O=C(c1coc2ccccc2c1=O)N1CCN(Cc2cn(-c3cccc(C(F)(F)F)c3)c3ccccc23)CC1 | Active
* O=C(c1coc2ccccc2c1=O)N1CCN(C(=O)c2cn(-c3cccc(C(F)(F)F)c3)c3ccc([N+](=O)[O-])cc23)CC1 | inactive

## Input Entry "Nc1cccc(-n2cc(C(=O)N3CCN(C(=O)c4coc5ccccc5c4=O)CC3)c3cc(N)ccc32)c1" : reported inhibition = ?
## Output Active

## Input Entry "CN(CCN(C)Cc1cn(S(=O)(=O)c2ccccc2)c2ccccc12)Cc1coc2ccccc2c1=O" : reported inhibition = ?
## Output 100%

## Input Entry Nc1cccc(-n2cc(C(=O)N3CCN(C(=O)C4COc5ccccc5C4=O)CC3)c3cc(N)ccc32)c1 (stereo not drawn) : reported inhibition = ?
## Output inactive
